# Test system: P. aeruginosa LESB58-lux
# Experiment: In vitro synergy, checkerboard assay (luminescence readout)
# Type: cell-based, Pseudomonas aeruginosa
# Run Conditions: TCM, LESB58-lux; FICI <= 0.5 indicates synergy
Peptide text beside a SMILES is read from it.
Observable: FICI, drug combined with CAZ
One number for each entry.

Reference set, count: 4
Molecule | FICI, drug combined with CAZ
CC[C@H](C)CCCCC(=O)N[C@@H](CCN)C(=O)N[C@H](C(=O)N[C@@H](CCN)C(=O)N[C@H]1CCNC(=O)[C@H]([C@@H](C)O)NC(=O)[C@H](CCN)NC(=O)[C@H](CCN)NC(=O)[C@H](CC(C)C)NC(=O)[C@@H](CC(C)C)NC(=O)[C@H](CCN)NC1=O)[C@@H](C)O [CST, colistin] (HELM PEPTIDE1{[CC[C@H](C)CCCCC(=O)[*:2]].[Dab].T.[Dab].[Dab].[Dab].[dL].L.[Dab].[Dab].T}$PEPTIDE1,PEPTIDE1,5:R3-11:R2$$$V2.0) | 0.38
NC(=O)[C@@H]1CC[C@@H]2CN1C(=O)N2OS(=O)(=O)O | 0.38
O=C(O)c1cn(C2CC2)c2cc(N3CCNCC3)c(F)cc2c1=O | 0.63
NC[C@H]1O[C@H](O[C@H]2[C@H](O)[C@@H](O[C@H]3O[C@H](CO)[C@@H](O)[C@H](N)[C@H]3O)[C@H](N)C[C@@H]2N)[C@H](N)C[C@@H]1O | 0.38

Moving on to another molecule below.
Kindly note: P. aeruginosa LESB58-lux, CC[C@H]1OC(=O)[C@H](C)[C@@H](O[C@H]2C[C@@](C)(OC)[C@@H](O)[C@H](C)O2)[C@H](C)[C@@H](O[C@@H]2O[C@H](C)C[C@H](N(C)C)[C@H]2O)[C@](C)(O)C[C@@H](C)CN(C)[C@H](C)[C@@H](O)[C@]1(C)O , FICI, drug combined with CAZ value reported: 0.625
